target: Ba/F3 cells containing Ros1 with a mutation at the gatekeeper residue (L2026M) (Homo sapiens, UniProt P08922, L2026M, cells depend on it, form not given); test: Ba/F3-Ros1 cell proliferation assay, L2026M gatekeeper mutant; assay type: cell-based, murine; settings: without IL-3
Sequence (P08922 whole entry L2026M, form open): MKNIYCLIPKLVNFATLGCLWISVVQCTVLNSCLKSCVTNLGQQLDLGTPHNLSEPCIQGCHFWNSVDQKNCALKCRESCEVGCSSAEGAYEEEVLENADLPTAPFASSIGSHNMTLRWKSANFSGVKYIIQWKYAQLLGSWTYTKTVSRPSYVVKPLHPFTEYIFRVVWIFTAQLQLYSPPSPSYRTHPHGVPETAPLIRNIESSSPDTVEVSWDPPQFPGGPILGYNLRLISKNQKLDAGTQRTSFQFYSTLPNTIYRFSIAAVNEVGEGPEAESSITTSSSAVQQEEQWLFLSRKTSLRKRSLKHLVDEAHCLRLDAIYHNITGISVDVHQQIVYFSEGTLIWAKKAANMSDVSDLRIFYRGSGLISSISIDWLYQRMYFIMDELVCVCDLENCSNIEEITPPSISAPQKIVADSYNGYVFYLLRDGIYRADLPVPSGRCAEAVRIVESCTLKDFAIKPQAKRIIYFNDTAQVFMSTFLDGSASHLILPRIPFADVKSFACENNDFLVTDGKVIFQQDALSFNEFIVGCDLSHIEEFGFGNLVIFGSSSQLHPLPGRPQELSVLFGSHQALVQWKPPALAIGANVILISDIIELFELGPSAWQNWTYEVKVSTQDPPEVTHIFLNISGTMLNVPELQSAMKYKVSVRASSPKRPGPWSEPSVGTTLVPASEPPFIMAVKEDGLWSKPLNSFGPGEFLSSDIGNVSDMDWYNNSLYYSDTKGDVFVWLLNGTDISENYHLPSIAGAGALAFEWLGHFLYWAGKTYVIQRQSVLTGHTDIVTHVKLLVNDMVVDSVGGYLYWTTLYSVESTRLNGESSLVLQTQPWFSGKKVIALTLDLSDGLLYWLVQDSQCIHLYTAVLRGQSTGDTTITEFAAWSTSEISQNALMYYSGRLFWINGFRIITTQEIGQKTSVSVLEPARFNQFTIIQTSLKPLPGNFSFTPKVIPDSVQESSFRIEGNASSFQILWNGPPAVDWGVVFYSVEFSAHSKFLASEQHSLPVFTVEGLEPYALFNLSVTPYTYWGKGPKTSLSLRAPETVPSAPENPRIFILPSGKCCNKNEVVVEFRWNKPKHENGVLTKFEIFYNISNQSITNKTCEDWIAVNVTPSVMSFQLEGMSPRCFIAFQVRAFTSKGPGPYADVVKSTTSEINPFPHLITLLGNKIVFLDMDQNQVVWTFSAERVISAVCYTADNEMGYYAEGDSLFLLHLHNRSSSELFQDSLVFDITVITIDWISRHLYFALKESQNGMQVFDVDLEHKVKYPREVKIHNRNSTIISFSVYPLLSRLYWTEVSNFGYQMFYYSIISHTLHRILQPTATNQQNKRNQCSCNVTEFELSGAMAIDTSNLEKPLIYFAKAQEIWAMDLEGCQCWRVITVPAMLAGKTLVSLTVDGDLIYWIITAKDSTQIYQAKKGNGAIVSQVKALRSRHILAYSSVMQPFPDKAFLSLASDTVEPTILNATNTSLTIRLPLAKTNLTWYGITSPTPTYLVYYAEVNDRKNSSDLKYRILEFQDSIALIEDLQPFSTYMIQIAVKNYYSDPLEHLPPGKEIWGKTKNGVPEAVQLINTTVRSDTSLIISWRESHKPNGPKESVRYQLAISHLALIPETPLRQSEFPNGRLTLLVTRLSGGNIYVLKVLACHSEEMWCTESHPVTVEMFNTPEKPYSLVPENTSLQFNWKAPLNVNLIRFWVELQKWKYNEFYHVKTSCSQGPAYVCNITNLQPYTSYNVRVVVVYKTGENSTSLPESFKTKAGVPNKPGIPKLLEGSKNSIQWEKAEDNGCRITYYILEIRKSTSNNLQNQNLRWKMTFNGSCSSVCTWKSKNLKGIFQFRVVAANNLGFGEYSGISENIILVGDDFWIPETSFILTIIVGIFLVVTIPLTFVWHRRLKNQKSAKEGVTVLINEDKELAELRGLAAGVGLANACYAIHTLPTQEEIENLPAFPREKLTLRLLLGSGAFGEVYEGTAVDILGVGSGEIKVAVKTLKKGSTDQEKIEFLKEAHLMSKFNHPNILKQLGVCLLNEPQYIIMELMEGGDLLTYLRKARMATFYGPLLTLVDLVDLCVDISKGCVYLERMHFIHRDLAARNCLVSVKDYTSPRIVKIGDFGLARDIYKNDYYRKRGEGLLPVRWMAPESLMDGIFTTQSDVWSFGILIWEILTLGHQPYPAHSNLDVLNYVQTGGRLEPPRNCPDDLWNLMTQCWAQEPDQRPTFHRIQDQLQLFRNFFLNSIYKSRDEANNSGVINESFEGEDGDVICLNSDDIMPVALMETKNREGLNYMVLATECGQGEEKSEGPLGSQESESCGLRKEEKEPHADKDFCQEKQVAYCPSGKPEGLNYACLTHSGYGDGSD
Would you mind telling me the reported Ba/F3 Ros1 L2026M (-IL-3) pIC50 of each entry?

Known Ba/F3 Ros1 L2026M (-IL-3) pIC50 results, listed for orientation:
INSERT INTO measurements (compound, result) VALUES
  ('CC(C)c1ccc(COc2ccc(-c3c(-c4ccncc4)nn4c3C(=O)N(C(C)CO)CC4)cc2)cc1 (single isomer, unassigned) [Compound 38]', 7.5),
  ('CC(C)c1ccc(C(C)Oc2ccc(-c3c(-c4ccncc4)nn4c3C(=O)N(CCO)CC4)cc2)cc1 (stereo not drawn) [Compound 144]', 5.7),
  ('CC(C)c1ccc(COc2ccc(-c3c(-c4ccncc4)nn4c3C(=O)N(CCO)CC4)cn2)cc1', 6.8);

Batch of 6 compounds: report Ba/F3 Ros1 L2026M (-IL-3) pIC50 for each.
1. CC(C)c1ccc(COc2ccc(-c3c(-c4ccncc4)nn4c3C(=O)N(C(=O)OC(C)(C)C)CC4)cc2)cc1
2. CC(C)c1ccc(COc2ccc(-c3c(-c4ccncc4)nn4c3C(=O)NCC4)c(F)c2)cc1CCO
3. O=C1c2c(-c3ccc(OCc4ccc(C5CC5)nc4)cc3)c(-c3ccncc3)nn2CCN1CCO
4. CC(C)c1ccc(COC2CCN(c3c(-c4ccncc4)nn4c3C(=O)N(C)CC4)CC2)cc1
5. CC(C)c1ccc(C2COc3cc(-c4c(-c5ccncc5)nn5c4C(=O)NCC5)ccc3O2)cc1 (stereo not drawn)
6. CC(C)c1ccc(COc2ccc(-c3c(-c4ccncc4)nn4c3C(=O)N(C(C)C)CC4)cc2)cc1

1: 6.1; 2: 7.8; 3: 6.0; 4: 7.2; 5: 7.4; 6: 7.2
